target: Factor XIa (Homo sapiens (Human)); assay: Factor XIa inhibition assay (FLINT) utilizing a fluorophore-quencher pair peptide substrate; type: biochemical; settings: 30 min preincubation, kinetic reads over 30 min, 5Fam-[…]-K5Tamra substrate 15 μM; read-out: FXIa Kin Inh IC50
ASSAY ENDPOINT: IC50 (nM)

MOLECULE: Nc1ccn(-c2cc(-c3cnc([C@H]4CC[C@@H]5CC(c6c(-n7cnnn7)ccc(Cl)c6F)=CC(=O)N54)[nH]3)ccn2)n1 (single isomer, unassigned)
TEST TARGET: Factor XIa (Homo sapiens (Human))
RESULT UNITS: nM
IC50: 6.5

A. O=C1C=C(c2c(-n3cnnn3)ccc(Cl)c2F)C[C@H]2CC[C@@H](c3ncc(-c4ccnc(C(F)(F)CO)c4F)[nH]3)N12 (relative stereo)
B. Cc1nc([C@@H]2CC[C@@H]3CC(c4c(-n5cnnn5)ccc(Cl)c4F)=CC(=O)N32)[nH]c1-c1ccnc(CO)c1F (single isomer, unassigned)
Query block: Just tell me: smaller IC50 value, A or B ? Please identify the chosen entry by its label.
Result block: A

* * *

target: Factor XIa (Homo sapiens (Human)); assay: Factor XIa inhibition assay (FLINT) utilizing a fluorophore-quencher pair peptide substrate; type: biochemical; details: 30 min preincubation, kinetic reads over 30 min, 5Fam-KLTRAETV-K5Tamra substrate 15 μM; read-out: FXIa Kin Inh IC50
ASSAY ENDPOINT: IC50 (nM)

COMPOUND: O=C1C=C(c2c(-n3cnnn3)ccc(Cl)c2F)C[C@@H]2CC[C@@H](c3nc(Cl)c(-c4ccnc([C@H](O)C(F)(F)F)c4)[nH]3)N12 (single isomer, unassigned)
RESULT UNITS: nM
IC50: 3.6

a. O=C1C=C(c2c(-n3cnnn3)ccc(Cl)c2F)C[C@H]2CC[C@@H](c3ncc(-c4ccnc5ccsc45)[nH]3)N12
b. Cc1cc2c(-c3cnc([C@@H]4CCC5CC(c6c(-n7cnnn7)ccc(Cl)c6F)=CC(=O)N54)[nH]3)c[nH]c2cn1 (stereo partly drawn)
Query block: Please tell me which of the two, a or b , has the higher reported IC50 value. Please identify the chosen entry by its label.
Result block: b

* * *

target: human plasma kallikrein (Homo sapiens (Human)); assay: Kallikrein inhibition assay (FLINT) utilizing a quenched AMC peptide substrate; assay type: biochemical; conditions: 30 min preincubation, kinetic reads over 30 min, Z-Gly-Pro-Arg-AMC substrate 50 μM; read-out: Kallikrein Kin Inh IC50
ASSAY ENDPOINT: IC50 (nM)

A selection of reference data follows.
COMPOUND: O=C1C[C@H](c2c(-n3cnnn3)ccc(Cl)c2F)C[C@H]2CC[C@@H](c3ncc(-c4ccnc(CO)c4F)[nH]3)N12
TEST TARGET: human plasma kallikrein (Homo sapiens (Human))
IC50, nM: 115
--
COMPOUND: O=C1C=C(c2c(C(F)F)ccc(Cl)c2F)C[C@H]2CC[C@@H](c3nc(F)c(-c4ccnc(CO)c4F)[nH]3)N12
TEST TARGET: human plasma kallikrein (Homo sapiens (Human))
IC50, nM: 118
--
COMPOUND: Nc1ccn(-c2cc(-c3cnc([C@H]4CC[C@@H]5CC(c6c(-n7cnnn7)ccc(Cl)c6F)=CC(=O)N54)[nH]3)ccn2)n1 (single isomer, unassigned)
TEST TARGET: human plasma kallikrein (Homo sapiens (Human))
IC50, nM: 2.3
--
COMPOUND: CCC(=O)Nc1ccccc1-c1c[nH]c([C@@H]2CC[C@@H]3CC(c4c(-n5cnnn5)ccc(Cl)c4F)=CC(=O)N32)n1 (single isomer, unassigned)
TEST TARGET: human plasma kallikrein (Homo sapiens (Human))
IC50, nM: 2.6

A. Nc1ccc(-c2cnc([C@@H]3CC[C@@H]4CC(c5c(-n6cnnn6)ccc(Cl)c5F)=CC(=O)N43)[nH]2)c(Cl)n1
B. O=C1C=C(c2c(-n3cc(C(F)(F)F)nn3)ccc(Cl)c2F)C[C@H]2CC[C@@H](c3ncc(-c4ccc(CO)nc4Cl)[nH]3)N12
C. O=C1C=C(c2c(-n3cc(C(F)(F)F)nn3)ccc(Cl)c2F)C[C@H]2CC[C@@H](c3ncc(-c4ccc5[nH]c(=O)ccc5c4)[nH]3)N12 (single isomer, unassigned)
D. Nc1noc2ccc(-c3cnc([C@@H]4CC[C@@H]5CC(c6c(-n7cnnn7)ccc(Cl)c6F)=CC(=O)N54)[nH]3)cc12
E. O=C(Nc1ccsc1-c1c[nH]c([C@@H]2CCC3CC(c4c(-n5cnnn5)ccc(Cl)c4F)=CC(=O)N32)n1)C1CC1 (stereo partly shown)
Query block: Returns the items ordered by IC50, from maximum to minimum. Return value: ordered labels per request.
Result block: B, D, A, E, C
(B: 138 nM, D: 6.9 nM, A: 2.6 nM, E: 1.5 nM, C: 1 nM)

a. O=C1C=C(c2c(-n3cnnn3)ccc(Cl)c2F)C[C@H]2CC[C@@H](c3nc(-c4ccnc(-c5ccn[nH]5)c4F)c[nH]3)N12 (single isomer, unassigned)
b. Nc1ccc(-c2cnc([C@@H]3CC[C@@H]4C(=O)N(c5cc(Cl)ccc5-n5cnnn5)CC(=O)N43)[nH]2)c(F)n1 (single isomer, unassigned)
c. CCNc1nccc(-c2cnc([C@@H]3CC[C@@H]4CC(c5c(-n6cnnn6)ccc(Cl)c5F)=CC(=O)N43)[nH]2)c1F
d. O=C1C=C(c2c(-n3cnnn3)ccc(Cl)c2F)C[C@H]2CC[C@@H](c3ncc(-c4c[nH]nc4Cl)[nH]3)N12 (single isomer, unassigned)
Query block: Sort low-to-high on IC50, please. Return value: ordered labels per request.
Result block: c, a, d, b

* * *

Biological target: human plasma kallikrein (Homo sapiens (Human), UniProt P03952)
Sequence (P03952 391-638): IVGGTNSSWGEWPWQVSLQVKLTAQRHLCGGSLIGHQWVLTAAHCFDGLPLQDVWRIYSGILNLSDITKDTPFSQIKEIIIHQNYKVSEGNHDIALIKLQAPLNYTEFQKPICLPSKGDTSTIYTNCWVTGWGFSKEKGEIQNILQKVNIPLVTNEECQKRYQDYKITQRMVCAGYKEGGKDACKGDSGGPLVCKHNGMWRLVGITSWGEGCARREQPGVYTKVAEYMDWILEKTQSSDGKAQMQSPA
Sequence (P03952 20-390 partner): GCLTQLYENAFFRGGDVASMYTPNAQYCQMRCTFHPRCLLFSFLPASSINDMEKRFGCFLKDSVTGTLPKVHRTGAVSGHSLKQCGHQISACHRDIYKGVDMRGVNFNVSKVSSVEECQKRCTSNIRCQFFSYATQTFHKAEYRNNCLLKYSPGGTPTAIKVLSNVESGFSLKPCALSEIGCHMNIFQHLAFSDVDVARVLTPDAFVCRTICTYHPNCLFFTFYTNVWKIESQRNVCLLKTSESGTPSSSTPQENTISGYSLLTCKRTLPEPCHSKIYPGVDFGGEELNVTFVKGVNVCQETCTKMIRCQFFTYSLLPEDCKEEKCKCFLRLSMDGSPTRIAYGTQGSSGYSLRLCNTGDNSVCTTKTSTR
Test: Kallikrein inhibition assay (FLINT) utilizing a quenched AMC peptide substrate
Format: biochemical
Conditions: 30 min preincubation, kinetic reads over 30 min, Z-Gly-Pro-Arg-AMC substrate 50 μM; read-out: Kallikrein Kin Inh IC50
Procedure: Biological Example 2: Kallikrein Inhibition Assay Utilizing a Quenched AMC Peptide Substrate A fluorescence intensity (FLINT) based assay was used to monitor inhibition of human plasma kallikrein. […] Test compound(s) were run in an 11-point, 3-fold serial dilution with a final top compound concentration of 1 μM. […] The assay was run with kinetic (KIN) reads at 5 min intervals over 30 minutes. […]
ASSAY ENDPOINT: IC50 (nM)

MOLECULE: O=C1CCCN1c1nccc(-c2cnc([C@@H]3CC[C@H]4CC(c5c(-n6cnnn6)ccc(Cl)c5F)=CC(=O)N43)[nH]2)c1F [Example 105]
QUANTITATIVE RESULT: 125

I. O=C1C=C(c2c(-n3cnnn3)ccc(Cl)c2F)C[C@H]2CC[C@H](c3nc(F)c(-c4ccnc(-n5cncn5)c4F)[nH]3)N12 (single isomer, unassigned) [Example 92]
II. O=C1C=C(c2c(-n3cnnn3)ccc(Cl)c2F)C[C@H]2CC[C@@H](c3ncc(-c4ccnc(N5CCC5)c4F)[nH]3)N12 (single isomer, unassigned) [Example 111]
Query block: Please tell me which of the two, I or II , has the higher reported IC50 value. Please identify the chosen entry by its label.
Result block: I

* * *

biological target: Factor XIa (Homo sapiens (Human)); assay: Factor XIa inhibition assay (FLINT) utilizing a fluorophore-quencher pair peptide substrate; type: biochemical; conditions: 30 min preincubation, kinetic reads over 30 min, 5Fam-KLTRAETV-K5Tamra substrate 15 μM; read-out: FXIa Kin Inh IC50
pIC50: −log10 of the molar value.
ASSAY ENDPOINT: pIC50

A selection of reference data follows.
COMPOUND: CC(F)(F)C(=O)Nc1cnccc1-c1c[nH]c([C@@H]2CCC3CC(c4c(-n5cnnn5)ccc(Cl)c4F)=CC(=O)N32)n1 (stereo partly drawn)
ASSAY ENDPOINT: pIC50
QUANTITATIVE RESULT: 8.74
--
COMPOUND: O=C1Cc2ccc(-c3cnc([C@@H]4CCC5CC(c6c(-n7cnnn7)ccc(Cl)c6F)=CC(=O)N54)[nH]3)c(F)c2N1 (stereo partly drawn)
ASSAY ENDPOINT: pIC50
QUANTITATIVE RESULT: 8.51

I. O=C1C=C(c2c(-n3cnnn3)ccc(Cl)c2F)C[C@H]2CC[C@H](c3nc(F)c(-c4ccnc(-n5cncn5)c4F)[nH]3)N12 (single isomer, unassigned)
II. O=C(O)c1ccc(-c2cnc([C@@H]3CCC4CC(c5c(-n6cnnn6)ccc(Cl)c5F)=CC(=O)N43)[nH]2)cc1F (stereo partly drawn)
III. O=C1C=C(c2c(-n3cnnn3)ccc(Cl)c2F)CC2CC[C@@H](c3nc(-c4ccnc(OCCO)c4)c[nH]3)N12 (single isomer, unassigned)
IV. O=C(Nc1cnc(C(F)(F)F)cc1-c1cnc([C@@H]2CC[C@H]3CC(c4c(-n5cnnn5)ccc(Cl)c4F)=CC(=O)N32)[nH]1)C1CC1
Query block: Sort low-to-high on pIC50, please. Return value: ordered labels per request.
Result block: II, IV, I, III

* * *

biological target: Factor XIa (Homo sapiens (Human), UniProt P03951); test: Factor XIa inhibition assay (FLINT) utilizing a fluorophore-quencher pair peptide substrate; type: biochemical; conditions: 30 min preincubation, kinetic reads over 30 min, 5Fam-KLTRAETV-K5Tamra substrate 15 μM; read-out: FXIa Kin Inh IC50
Sequence (P03951 388-625): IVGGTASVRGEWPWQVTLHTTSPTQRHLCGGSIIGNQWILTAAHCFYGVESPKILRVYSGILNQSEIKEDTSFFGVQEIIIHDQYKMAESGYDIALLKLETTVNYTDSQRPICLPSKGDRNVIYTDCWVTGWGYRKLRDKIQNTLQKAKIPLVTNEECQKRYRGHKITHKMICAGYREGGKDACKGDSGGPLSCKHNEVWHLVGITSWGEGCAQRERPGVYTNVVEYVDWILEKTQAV
Sequence (P03951 19-387 partner): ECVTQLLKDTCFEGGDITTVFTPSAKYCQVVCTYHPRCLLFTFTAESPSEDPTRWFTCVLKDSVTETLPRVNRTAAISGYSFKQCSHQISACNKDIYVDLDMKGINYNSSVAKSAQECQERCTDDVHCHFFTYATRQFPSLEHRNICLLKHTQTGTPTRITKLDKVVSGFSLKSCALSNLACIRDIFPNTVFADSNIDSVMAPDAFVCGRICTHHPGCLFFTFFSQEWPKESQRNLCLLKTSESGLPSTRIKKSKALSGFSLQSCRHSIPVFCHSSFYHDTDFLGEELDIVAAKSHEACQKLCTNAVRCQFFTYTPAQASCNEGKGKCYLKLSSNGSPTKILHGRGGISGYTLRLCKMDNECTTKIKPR
ASSAY ENDPOINT: IC50 (nM)

A selection of reference data follows.
COMPOUND: CN(C)c1ccc(-c2cnc([C@@H]3CCC4CC(c5c(-n6cnnn6)ccc(Cl)c5F)=CC(=O)N43)[nH]2)c(F)n1 (stereo partly shown) [Example 315]
IC50, nM: 31.1
--
COMPOUND: O=C1C=C(c2c(-n3cnnn3)ccc(Cl)c2F)C[C@H]2CC[C@H](c3nc(F)c(-c4ccnc(C5(O)CC5)c4)[nH]3)N12 [Example 179]
IC50, nM: 0.5
--
COMPOUND: O=C1C=C(c2c(-n3cnnn3)ccc(Cl)c2F)C[C@H]2CC[C@H](c3nc(Cl)c(-c4ccnc(C5(O)CC5)c4)[nH]3)N12 [Example 178]
IC50, nM: 0.4
--
COMPOUND: CCOC(=O)Nc1ccncc1-c1c[nH]c([C@@H]2CC[C@H]3CC(c4c(-n5cnnn5)ccc(Cl)c4F)=CC(=O)N32)n1 [Example 268]
IC50, nM: 68.1
--
COMPOUND: COC(=O)Nc1nccc(-c2[nH]c([C@@H]3CC[C@@H]4CC(c5c(-n6cnnn6)ccc(Cl)c5F)=CC(=O)N43)nc2F)c1F [Example 40]
IC50, nM: 0.8
--
COMPOUND: CO[C@H]1C[C@@H](c2nc(-c3ccc(N)nc3F)c[nH]2)N2C(=O)C=C(c3c(-n4cnnn4)ccc(Cl)c3F)CC12 (stereo partly shown) [Example 285]
IC50, nM: 9.1

P. Nc1cc(-c2[nH]c([C@@H]3CC[C@@H]4CC(c5c(-n6cnnn6)ccc(Cl)c5F)=CC(=O)N43)nc2Cl)ccn1 [Example 372]
Q. O=C1C=C(c2c(-n3cnnn3)ccc(Cl)c2F)CC2CC[C@@H](c3ncc(-c4ccc5[nH]c(=O)oc5c4)[nH]3)N12 (stereo partly shown) [Example 309]
R. O=C1C=C(c2c(-n3cnnn3)ccc(Cl)c2F)C[C@H]2CC[C@@H](c3ncc(-c4c[nH]nc4C(F)(F)F)[nH]3)N12 (single isomer, unassigned) [Example 240]
S. O=C(Nc1cnccc1-c1c[nH]c([C@@H]2CCC3CC(c4c(-n5cnnn5)ccc(Cl)c4F)=CC(=O)N32)n1)C1CC1 (stereo partly shown) [Example 370]
T. O=C1C=C(c2c(-n3cnnn3)ccc(Cl)c2F)C[C@H]2CC[C@@H](c3ncc(-c4cc[n+]([O-])c(CO)c4F)[nH]3)N12 [Example 65]
Query block: Sort low-to-high on IC50, please. Return value: ordered labels per request.
Result block: S, P, R, Q, T
